Test system: IL-6, IP-10
Test Method Notes: Cytokine induction (IL-6, IP-10) in mice 6 hours after intravenous administration
Type: in vivo
Parameters: unit not given here
Applied Conditions: intravenous 0.5 mpk
Overview of recorded Cytokine induction, IL-6 for various compounds
Simply state the number, no unit and no words.

Examples from the recorded data:
- Compound: "CCCCCCCCCOC(=O)CCCCCCCN(CCCCCCCC(=O)OC(CCCCCCCC)CCCCCCCC)CC(C)O (stereo not drawn)"
  Cytokine induction, IL-6: 88.81
- Compound: "CCCCCCCCCOC(=O)CCCCCCCN(CCCCCCCC(=O)OC(CCCCCCCC)CCCCCCCC)CC(O)CC (stereo not drawn)"
  Cytokine induction, IL-6: 29.07
- Compound: "CCCCCCCCCOC(=O)CCCCCCCN(CCCCO)CCCCCCCC(=O)OC(CCCCCCCC)CCCCCCCC"
  Cytokine induction, IL-6: 126.83
- Compound: "CCCCCCCCCN(CCCO)CCCCCCCC(=O)OC(CCCCCCCC)CCCCCCCC"
  Cytokine induction, IL-6: 116.35
- Compound: "CCCCCCCCCOC(=O)CCCCCCCN(CCO)CCCCCCC(=O)OCC(CCCCCCCC)CCCCCCCC"
  Cytokine induction, IL-6: 6.245

Consider the record given below.
Per the records, this compound ( CCCCCCCCCOC(=O)CCCCCCCN(CCO)CCCCCCCC(=O)OCCCCCCCCC ) has Cytokine induction, IL-6 equal to 23.38

----------
Test Method Notes: Encapsulation efficiency of RNA in nanoparticle compositions (RIBOGREEN assay)
Format: physicochemical
Applied Conditions: Table 1A; lipid:DSPC:cholesterol:PEG-DMG 50:10:38.5:1.5 mol %
Overview of recorded EE for various molecules
Field format: number, assumed %, no unit text.

- Mol: "CCCCCCCCCOC(=O)CCCCCCCN(CCO)CCCCCCCCCC(=O)OC(CCCCCCCC)CCCCCCCC"
  Measurement Unit: "%"
  EE: 92.68
- Mol: "CCCCCCCCCN(CCO)CCCCCCCC(=O)OC(CCCCCCCC)CCCCCCCC"
  Measurement Unit: "%"
  EE: 92.25
- Mol: "CCCCCCCC/C=C\\COC(=O)CCCCCN(CCO)CCCCCC(=O)OC/C=C\\CCCCCCCC"
  Measurement Unit: "%"
  EE: 89.2

Consider the record given below.
Per the records, this molecule ( CCCCCCCCCOC(=O)CCCCCCCN(CCO)CCCCCCCC(=O)OC(CCC)CCC ) has EE equal to 92.54

----------
Tested on: modified luciferase
Test Method Notes: Luciferase expression in liver, lung, spleen and femur 6 hours after intravenous administration to mice
Type: in vivo
Applied Conditions: liver, 6 hours after intravenous 0.5 mpk, mice
Overview of recorded Total Flux, Liver for various compounds
Simply state the number, no unit and no words.

- Compound: "CCCCCCCCC(CCC)OC(=O)CCCN(CCO)CCCCCCCC(=O)OC(CCCCCCCC)CCCCCCCC (stereo not drawn) [Compound 74]"
  Experimental System: "modified luciferase"
  Total Flux, Liver: "1.99E+09"
- Compound: "CCCCCCCCC(CCC)OC(=O)CCCCCCCN(CCO)CCCCCCCC(=O)OC(CCCCCCCC)CCCCCCCC (stereo not drawn) [Compound 50]"
  Experimental System: "modified luciferase"
  Total Flux, Liver: "6.30E+09"
- Compound: "CCCCCCCCCOC(=O)CCCCCCCN(CCO)CCCCCCCOC(=O)C(CCCCCCCC)CCCCCCCC [Compound 30]"
  Experimental System: "modified luciferase"
  Total Flux, Liver: "2.68E+09"
- Compound: "CCCCCCCCC(CCCCCCCC)OC(=O)CCCCCCCN(CCO)CCCC(=O)OCCCCCC [Compound 53]"
  Experimental System: "modified luciferase"
  Total Flux, Liver: "2.02E+09"
- Compound: "CCCCCCCCCOC(=O)CCCCCCCN(CCCCCCCC(=O)OC(CCCCCCCC)CCCCCCCC)C[C@H](C)O [Compound 12]"
  Experimental System: "modified luciferase"
  Total Flux, Liver: "6.84E+08"

Consider the record given below.
Per the records, this compound ( CCCCC/C=C\C/C=C\CCCCCCCCN(CCO)CCCCCCCC(=O)OC(CCCCCCCC)CCCCCCCC [Compound 6] ) has Total Flux, Liver equal to 1.09E+09

----------
Overview of recorded EE for various compounds
Test Method Notes: Encapsulation efficiency of RNA in nanoparticle compositions (RIBOGREEN assay)
Assay type: physicochemical
Applied Conditions: Table 1A; lipid:DSPC:cholesterol:PEG-DMG 50:10:38.5:1.5 mol %
Field format: number, assumed %, no unit text.

- Compound: "CCCCCCCCCOC(=O)CCCCCCCN(CCCCCCCC(=O)OC(CCCCCCCC)CCCCCCCC)CCCNC(=O)OC"
  Measurement Unit: "%"
  EE: 88.9

Per the records, this compound ( CCCCCCCCCOC(=O)CCCCCCCN(CCO)CCCCCCCC(=O)N(CCCCCCCC)CCCCCCCC ) has EE equal to 90.3

Per the records, this compound ( CCCCCCCCC(C)OC(=O)CCCCCCCN(CCO)CCCCCCCOC(=O)C(CCCCCCCC)CCCCCCCC (stereo not drawn) ) has EE equal to 90.20

----------
Test Method Notes: Lipid clearance: mouse liver tissue level and % dose remaining in liver after intravenous administration
Assay type: in vivo
Applied Conditions: mouse, liver, 0.5 mg/kg, 24 h
Hi! Could you tag entries with concentration at 24 h below 10000 ng/g as label 1, and those at or above as label 0? Much appreciated.

Field: example entries. Status: answers known.
- Compound: "CCCCCC=CCC=CCCCCCCCCC(CCCCCCCCC=CCC=CCCCCC)OC(=O)CCCN(C)C (stereo not drawn) [MC3, reference compound]"
  Label Class: "label 0"
- Compound: "CCCCCCCCCOC(=O)CCCCCCCN(CCO)CCCCCCCC(=O)OC(CCC1CC1CCCC)CCC1CC1CCCC (stereo not drawn)"
  Label Class: "label 1"
- Compound: "CCCCCCCOC(=O)CCCCCCCCCN(CCO)CCCCCCCCCC(=O)OC(CCCCCC)CCCCCC"
  Label Class: "label 1"
- Compound: "CCCCCCCCCC(=O)OC(C)CCCCCCN(CCO)CCCCCCCC(=O)OC(CCCCCCCC)CCCCCCCC (stereo not drawn)"
  Label Class: "label 0"
- Compound: "CCCCCCCCCC(C)(O)CCCCCCCCN(CCO)CCCCCCCC(=O)OC(CCCCCCCC)CCCCCCCC (stereo not drawn)"
  Label Class: "label 0"

Check if concentration at 24 h falls below 10000 ng/g for CCCCCCCCCC(=O)OC(C)CCCCCCN(CCO)CCCCCCCOC(=O)C(CCCCCCCC)CCCCCCCC (stereo not drawn) .
label 0

----------
Test Method Notes: Encapsulation efficiency of RNA in nanoparticle compositions (RIBOGREEN assay)
Type: physicochemical
Applied Conditions: Table 1A; lipid:DSPC:cholesterol:PEG-DMG 50:10:38.5:1.5 mol %
Reported Metric: EE (%)
Field format: number, assumed %, no unit text.

Examples from the recorded data:
- Mol: "CCCCCCCCCOC(=O)CCCCCCCN(CCCCCCCC(=O)OC(CCCCCCCC)CCCCCCCC)CCCN/C(=N/C#N)N(C)C"
  Measurement Unit: "%"
  Value Reported: 91.4
- Mol: "CCCCC/C=C\\C/C=C\\CCCCCCCCN(CCO)CCCCCCCC(=O)OCCCCCCCCC"
  Measurement Unit: "%"
  Value Reported: 90.9

Consider the record given below.
Per the records, this compound ( CCCCCCCCCC(=O)OCCCCCCCN(CCO)CCCCCCCOC(=O)C(CCCCCCCC)CCCCCCCC ) has EE equal to 87.86

----------
Overview of recorded Cytokine induction, IL-6 for various compounds
Tested on: IL-6, IP-10
Test Method Notes: Cytokine induction (IL-6, IP-10) in mice 6 hours after intravenous administration
Type: in vivo
Parameters: unit not given here
Applied Conditions: intravenous 0.5 mpk
Simply state the number, no unit and no words.

- Compound: "CCCCCCCCCOC(=O)CCCCCCCN(CCCCCCCC(=O)OC(CCCCCCCC)CCCCCCCC)CCN(C)C"
  Cytokine induction, IL-6: 75.29
- Compound: "CCCCCCCCC(CCCCCCCC)OC(=O)CCCCCCCN(CCO)CCCCCCCC"
  Cytokine induction, IL-6: 13.1375
- Compound: "CCCCCCCCCOC(=O)CCCCCCCN(CCCCCCCC(=O)OC(CCCCCCCC)CCCCCCCC)CCOC"
  Cytokine induction, IL-6: 64.65
- Compound: "CCCCCC=CCC=CCCCCCCCCC(CCCCCCCCC=CCC=CCCCCC)OC(=O)CCCN(C)C (stereo not drawn) [MC3, reference compound]"
  Cytokine induction, IL-6: 124.42
- Compound: "CCCCCCCCCOC(=O)CCCCCCCN(CCCO)CCCCCCCC(=O)OC(CCCCCCCC)CCCCCCCC"
  Cytokine induction, IL-6: 285.56

Consider the record given below.
Per the records, this compound ( CCCCCCCCCOC(=O)CCCCCCCN(CCCCCCCC(=O)OC(CCCCCCCC)CCCCCCCC)CCOCCN(C)C ) has Cytokine induction, IL-6 equal to 138.43
